B1: ZNF511 (parent)
chain: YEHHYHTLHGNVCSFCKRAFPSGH

Variants of: B1
assayName: protein stability index of a GFP-peptide fusion (GPS, HEK-293T) (PSI 1-6); higher = more stable;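 note: lentivirally expressed fusions sorted by FACS into six bins by GFP to DsRed ratio, PSI derived from sequencing read proportions per bin multiplied by bin number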
studyConditions: c terminus: a fixed tail appended
property: protein stability index
API doc: respond with a numeric literal and nothing else, no unit.

changes: H24L
protein stability index: 2.02

changes: V12H
protein stability index: 2.4

changes: G10P
protein stability index: 1.95

Field request: protein stability index | item: G23P
2.27

protein stability index for C16I ?
1.86

Value source: the supplement of paper PMC10567573
